TARGET_OR_SYSTEM: BRAF V600E (Homo sapiens, UniProt P15056, V600E)
Sequence (P15056 whole entry V600E): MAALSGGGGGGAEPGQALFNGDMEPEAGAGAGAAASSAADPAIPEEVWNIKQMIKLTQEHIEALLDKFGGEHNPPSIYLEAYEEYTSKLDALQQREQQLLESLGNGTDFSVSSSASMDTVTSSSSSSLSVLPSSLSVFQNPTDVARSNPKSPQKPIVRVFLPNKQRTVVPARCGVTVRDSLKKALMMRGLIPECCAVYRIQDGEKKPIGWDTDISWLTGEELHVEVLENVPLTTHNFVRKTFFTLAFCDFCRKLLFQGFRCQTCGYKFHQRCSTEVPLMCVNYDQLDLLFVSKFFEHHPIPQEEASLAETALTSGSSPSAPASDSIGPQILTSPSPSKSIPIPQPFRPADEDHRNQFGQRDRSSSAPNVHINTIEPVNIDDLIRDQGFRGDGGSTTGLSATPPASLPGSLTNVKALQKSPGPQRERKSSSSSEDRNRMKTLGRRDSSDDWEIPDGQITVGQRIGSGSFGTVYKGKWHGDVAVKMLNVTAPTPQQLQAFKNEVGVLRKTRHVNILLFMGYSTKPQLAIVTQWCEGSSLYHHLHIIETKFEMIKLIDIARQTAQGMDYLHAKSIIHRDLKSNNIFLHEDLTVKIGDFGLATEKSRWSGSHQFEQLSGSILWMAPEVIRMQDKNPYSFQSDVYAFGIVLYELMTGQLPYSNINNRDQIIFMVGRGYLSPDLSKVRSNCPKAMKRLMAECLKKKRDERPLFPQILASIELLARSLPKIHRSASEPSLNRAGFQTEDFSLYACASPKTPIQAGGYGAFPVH
TEST: HiBiT cellular BRAF^V600E degradation assay
Type: cell-based
TEST_CONDITIONS: A375.10 cells, 24 h; residual protein remaining in the cell; read-out: HiBit 24 h Emax
// Emax lookup, one value per entry
Give a bare numeral; the unit % is implied.

The examples below pair each entry with its known result.
CO[C@H]1CCN(S(=O)(=O)Nc2ccc(F)c(Oc3ccc4ncn([C@H]5COC6(CCN(C(=O)CC7(O)CCN(c8cc9c(cc8F)c(N8CCC(=O)NC8=O)nn9C)CC7)CC6)C5)c(=O)c4c3)c2C#N)C1 ... 24.8
CCN(C)S(=O)(=O)Nc1ccc(F)c(Nc2ccc3ncn([C@H]4COC5(CCN(C(=O)CC6(O)CCN(c7cc8c(cc7F)c(N7CCC(=O)NC7=O)nn8C)CC6)CC5)C4)c(=O)c3c2Cl)c1C#N (single isomer, unassigned) ... 18.5
CCN(C)S(=O)(=O)Nc1ccc(F)c(Oc2ccc3ncn(CCCC4CCN(C(=O)CN5CCC(c6ccc(NC7CCC(=O)NC7=O)cc6F)CC5)CC4)c(=O)c3c2)c1C#N (stereo not shown) ... 11.5
CCN(C)S(=O)(=O)Nc1ccc(F)c(Oc2ccc3ncn([C@H]4COC5(CCN(C(=O)CN6CC(c7ccc8c(C9CCC(=O)NC9=O)nn(C)c8c7)C6)CC5)C4)c(=O)c3c2)c1C#N (stereo partly shown) ... 7.11
CCN(C)S(=O)(=O)Nc1ccc(F)c(Oc2ccc3ncn(C4C5CN(C(=O)CN6CCC(c7ccc(NC8CCC(=O)NC8=O)cc7F)CC6)CC54)c(=O)c3c2)c1C#N (stereo not shown) ... 11.9
CCN(C)S(=O)(=O)Nc1ccc(F)c(Oc2ccc3ncn(C4CCC5(CCN(C(=O)CN6CCC(c7ccc(NC8CCC(=O)NC8=O)cc7F)CC6)CC5)C4)c(=O)c3c2Br)c1C#N (stereo not shown) ... 9.52
CCN(C)S(=O)(=O)Nc1ccc(F)c(Oc2ccc3ncn([C@H]4COC5(CCN(C(=O)CC6(O)CCN(c7cc8c(cc7F)c(N7CCC(=O)NC7=O)nn8C)CC6)CC5)C4)c(=O)c3c2F)c1C#N (single isomer, unassigned) ... 21.2
CCN(C)S(=O)(=O)Nc1ccc(F)c(Oc2ccc3ncn(C4COC5(CCN(C(=O)CC6(O)CCN(c7cc8c(cc7F)c(N7CCC(=O)NC7=O)nn8C)CC6)CC5)C4)c(=O)c3c2N(C)C)c1C#N (stereo not shown) ... 19.3

Query block: State the recorded Emax for this entry: CCN(C)S(=O)(=O)Nc1ccc(F)c(Oc2ccc3ncn(C4COC5(CCN(C(=O)CN6CCC(c7ccc(NC8CCC(=O)NC8=O)cc7F)CC6)CC5)C4)c(=O)c3c2Cl)c1C#N (stereo not shown)
Result block: 10.5

Query block: Repeat with CCN(C)S(=O)(=O)Nc1ccc(F)c(Oc2ccc3ncn([C@@H]4COC5(CCN(C(=O)CC6(O)CCN(c7cc8c(cc7F)c(N7CCC(=O)NC7=O)nn8C)CC6)CC5)C4)c(=O)c3c2)c1C#N
Result block: 7.82

Query block: Repeat with CCN(C)S(=O)(=O)Nc1ccc(F)c(Oc2ccc3ncn(CCC4CCN(C(=O)CN5CCC(c6ccc7c(C8CCC(=O)NC8=O)nn(C)c7c6)CC5)CC4)c(=O)c3c2)c1C#N (stereo not shown)
Result block: 16.7

Query block: Repeat with CCN(C)S(=O)(=O)Nc1ccc(F)c(Oc2ccc3ncn(-c4ccc(N5CCN(C(=O)CN6CCC(c7ccc(N[C@@H]8CCC(=O)NC8=O)cc7F)CC6)CC5)nc4)c(=O)c3c2)c1C#N
Result block: 14.1

Query block: Repeat with CCN(C)S(=O)(=O)Nc1ccc(F)c(Oc2ccc3ncn(C4CCC5(CC4)CCN(C(=O)CN4CCC(c6ccc(NC7CCC(=O)NC7=O)cc6F)CC4)C5)c(=O)c3c2)c1C#N (stereo not shown)
Result block: 11.4

Where these numbers come from: patent US12486253B2
